Taken from the supplement of paper PMC10567573.

B1: HESX1 (parent)
chain: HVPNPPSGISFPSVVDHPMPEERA

variants of: B1; assay: protein stability index of a GFP-peptide fusion (GPS, HEK-293T) (PSI 1-6); higher = more stable; conditions: c terminus: a fixed tail appended;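 note: lentivirally expressed fusions sorted by FACS into six bins by GFP to DsRed ratio, PSI derived from sequencing read proportions per bin multiplied by bin number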
Readout type: protein stability index

Recorded results for 5 variants are shown here.
Residue change: P20T
protein stability index: 2.91
--
Residue change: D16H
protein stability index: 2.81
--
Residue change: A24V
protein stability index: 2.98
--
Residue change: P5G
protein stability index: 1.93
--
Residue change: V2W
protein stability index: 4.53

Query: May I ask what protein stability index has been recorded for P3D ?
Result: 5.34

Query: May I ask what protein stability index has been recorded for I9M ?
Result: 2.5

Query: May I ask what protein stability index has been recorded for P20L ?
Result: 2.48

Query: May I ask what protein stability index has been recorded for V2G ?
Result: 5.17

Query: May I ask what protein stability index has been recorded for S10L ?
Result: 2.38

Query: May I ask what protein stability index has been recorded for V14C ?
Result: 2.25
